MEASURED_TARGET: CP-13 (N-terminal Ac-D-Tyr cyclized to a C-terminal Cys (thioether macrocycle))
METHOD: SPR
OBSERVATION_TYPE: Kd
Field note: include the unit after the figure.

Looking up CD59 (immobilized for SPR) (receptor) LQCYNCPNPTADCKTAVNCSSDFDACLITKAGLQVYNKCWKFEHCNFNDVTTRLRENELTYYCCKKDLCNFNEQLEN , I found its Kd recorded as 10.8 nM
